Molecular target: Ubiquitin carboxyl-terminal hydrolase 8 (Homo sapiens)
Assay: Ubiquitin-specific protease 8 inhibitors, concentration-effect, biochemical, validation of initial actives (AID 1645862);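 also: potency reflects inhibition of USP8 cleavage of a ubiquitin rhodamine substrate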
Details: recombinant USP8 deubiquitinase activity assay
The source made the active and inactive calls. No rule for the calls is given here.
Classes to choose from: True = active, False = inactive

Cc1cc(=O)[nH]c(NC2CCN(S(=O)(=O)c3ccccc3C(F)(F)F)CC2)n1 ... False
Cc1ccc(NC(=O)Cc2nnc3cc(-c4nc(C)no4)ccn23)cc1 ... True
CCn1c(SCC(=O)Nc2ccc(C)c(Cl)c2)nnc1-c1ccc2c(c1)OCCO2 ... False
O=C(/C=C/c1cccc([N+](=O)[O-])c1)N1CCc2ccccc21 ... False
O=c1c2ccccc2nc(CSc2cccc(Cl)c2Cl)n1-c1ccccc1 ... False

Prompt: Hi, do you know how O=C(Cn1c(=O)n(-c2ccccc2)c(=O)c2ccc(C(=O)NCc3ccc4c(c3)OCO4)cc21)NCCC1=CCCCC1 came out in this test?
Response: False

Prompt: Outcome logged for COc1cc(NC(=O)c2ccc3c(c2)OCO3)ccc1-c1cc2ccccc2oc1=O in this assay:
Response: False

Prompt: What classification did Cn1c2ccccc2c(=O)c2c(=O)n(-c3cccc(Cl)c3)c(-c3cccs3)nc21 end up with in this test?
Response: True

Prompt: Fill in: this test's call for O=C(CSc1nnc2n(-c3ccccc3)c(=O)c3ccccc3n12)c1ccc(F)cc1 is ___
Response: False

Prompt: Could you kindly confirm the outcome this assay logged for O=C(NCc1ccco1)c1ccc(Cn2c(=O)c3sccc3n(Cc3cc(=O)n4ccccc4n3)c2=O)cc1 ?
Response: False

Prompt: Assay outcome for COc1ccc(-c2noc([C@@H]3C[C@H](NC(=O)Nc4ccc(C)cc4)CN3C)n2)cc1 : what was it?
Response: False

Prompt: Please share the test call associated with Cc1cc(Nc2ccc(C(=O)NCc3ccco3)cc2)n2nc(-c3cccnc3)nc2n1 .
Response: False

Prompt: Which outcome was assigned to Cc1csc(NC(=O)c2c[nH]c3ccc(F)cc3c2=O)n1 in this test?
Response: False

Every entry's value here was drawn from PubChem BioAssay AID1645862.
